# Test system: Enterococcus faecalis
# Measurement Notes: Antibacterial activity against Enterococcus faecalis KCTC 5191 after 24 hrs by two-fold serial dilution method
# Type: functional
# Study Conditions: KCTC 5191, 24 h
MIC listing for selected compounds.
Please state the figure in µg/mL; there is no need to write the unit.

O=C(O)c1cn(C2CC2)c2cc(N3CCNCC3)c(F)cc2c1=O [CIPROFLOXACIN] :: 1
CC(C)C[C@@H]1NC(=O)CN2C(=O)[C@H](CNC(=O)[C@@H](CNC(=O)/C=C/NC(=O)/C=C/C=C/CCC/C=C/CC[C@@H](C)O)NC1=O)NC2(C)C :: 8

Read the next record carefully.
Which MIC is reported with Enterococcus faecalis for this entry: `CC[C@H](C)[C@@H]1NC(=O)[C@H]([C@@H](C)O)N2C(=O)[C@H](CNC(=O)[C@@H](CNC(=O)/C=C/NC(=O)/C=C/C=C/CCC/C=C/CC[C@@H](C)O)NC1=O)NC2(C)C` ?
64
